Below, each of the compounds is paired with its reported TGI value.
- System: SK-MEL-28 melanoma
- Test Description: NCI tumour cell line growth inhibition, 48 h

## Task Fill in the blank: the reported TGI of Nc1ccc(-c2nc3ccc4[nH]ncc4c3c3c2CCCC3)cc1F is ____.
## Result 6.86 µM

## Task Follow-up item: Cc1ccc(Cl)cc1Nc1nc(C(F)(F)F)ccc1C(=O)Nc1cccc(C(F)(F)F)c1
## Result 18.3 µM

## Task Follow-up item: CN1CCn2c(Br)ccc2C1=O
## Result > 100 µM

## Task Follow-up item: COC(=O)C1=C(OC)c2cc3c(cc2C(c2cc(OC)c(OC)c(OC)c2)C1C(=O)OC)OCO3 (configuration not stated)
## Result > 100 µM

## Task Follow-up item: Nc1nc(Cl)cc(N=Nc2ccccc2)n1
## Result > 100 µM

## Task Follow-up item: CCN(CC)CCN1C(=O)c2c(c(C)c3c(oc4cc(O)ccc43)c2C)C1=O
## Result 3.03 µM

## Task Follow-up item: Nc1[nH]c(=O)ncc1F
## Result > 100 µM

## Task Follow-up item: Clc1nc(-[n+]2ccc(-c3ccncc3)cc2)nc(Nc2ccccc2)c1Cl
## Result > 100 µM

## Task Follow-up item: COc1ccc(-c2ccc3c(NC(=O)C4CC4)n[nH]c3n2)cc1
## Result > 25 µM

## Task Follow-up item: CCSc1oc(-c2ccccc2)nc1[P+](c1ccccc1)(c1ccccc1)c1ccccc1
## Result 2.32 µM

## Task Follow-up item: Nc1ncnc2c1c(C(F)(F)F)cn2[C@@H]1O[C@H](CO)[C@@H](O)[C@H]1O
## Result 6.13 µM

## Task Follow-up item: Cc1ccc(C(=O)N(C(C)C)C(C)C)cc1N=NN(C)C
## Result > 100 µM

###

- Test system: 786-0 renal
- Test Description: NCI tumour cell line growth inhibition, 48 h; in the data active = GI50 below about 0.43 µM; inactive = the rest
Entry note: the call must match one of active, inactive

## Task Short answer needed: outcome of this test for COc1ccc(C(=O)c2cc(OC)c(OC)c(OC)c2)cc1OC(C)=O ?
## Result inactive

## Task Follow-up item: COC(=O)C[CH](C(=O)OC)[Ge]([CH3])([CH3])[S]c1ccccc1 (centres undefined)
## Result inactive

## Task Follow-up item: Oc1ccc2oc3ncc(Cl)c(-c4ccccc4)c3c2c1
## Result active

## Task Follow-up item: COc1ccc2c(c1)CCC1C2CC[C@@]2(C)C1CC[C@@]2(O)CNC(=O)/C=C/c1ccc(O)c(OC)c1 (some centres undefined)
## Result inactive

###

- Tested on: HT29 colon
- Test Description: NCI tumour cell line growth inhibition, 48 h
Below, each of the compounds is paired with its reported TGI value.
Give just the numeric value; µM need not be written.

## Task Quick check: TGI on HT29 colon, item COc1ccc(/C(C)=C(\c2ccc(Cl)cc2)c2ccc(OCCN3CCCC3)cc2)cc1 ?
## Result 4.08

## Task Follow-up item: CCOC(=O)c1cc2c(OC(C)=O)ccc(OC(C)=O)c2s1
## Result 10.7

###

- System: MALME-3M melanoma
- Test Description: NCI tumour cell line growth inhibition, 48 h
Parameter: TGI

Cc1cccc(NC(=O)C(=O)C2C(=O)NC(=O)NC2=O)c1C | > 100 µM
Cn1c2c([N+](=O)[O-])[se]nc2c(=O)n1-c1ccc([N+](=O)[O-])cc1 | 3.23 µM
COC(=O)C(/C(=N/NC(=O)c1ccncc1)C(=O)Nc1ccccc1OC)c1nc2ccc(Cl)cc2[nH]c1=O (configuration not stated) | > 100 µM
COc1ccc(C2(c3ccc(OC)cc3)OC(=O)c3cccc4cccc2c34)cc1 | > 100 µM
CN(C)CCOC(=O)COc1ccc(Cl)cc1 | > 100 µM

## Task Fill in the blank: the reported TGI of COC(=O)C[CH](C(=O)OC)[Ge]([CH3])([CH3])[S]c1ccccc1 (configuration not stated) is ____.
## Result > 100 µM

## Task Follow-up item: C=CN1C(=O)OC(c2ccccc2)C1c1ccccc1 (configuration not stated)
## Result > 100 µM

## Task Follow-up item: CC(CCC(=O)O)[C@H]1CCC2[C@H]3C(CC[C@@]21C)[C@@]1(C)CCC(O)C[C@H]1C[C@@H]3O (some centres not stated)
## Result > 100 µM

## Task Follow-up item: COc1ccccc1/C=C\c1cnnc2ccccc12
## Result > 10 µM
